The measured values listed here are drawn from a melting point compilation (Tetko et al.; mined from patent text by program, amines drawn as free bases though some values may be those of a salt).

In this section we review reported melting point values for a set of molecules.

Past entries and their recorded results:
molecule	melting point
CCOC(=O)CCC1CCCN2CCc3c([nH]c4ccccc34)C12 (stereo not given)	72 to 74 °C
CCN(CC)CCCNC(=O)Cn1ncc(-c2ccc(Cl)cc2)c1-c1ccccc1	104 to 105 °C
Cc1cc(-c2cnn3c(C(F)(F)F)cc(-c4cccc(C(F)(F)F)c4)nc23)cc(C)n1	236 °C

Form field melting point, entry O=c1[nH]c2cccc(Cl)c2s1 : 202 to 203 °C

The recorded melting point for COc1cc2c(cc1OCc1ccccc1)C(c1ccccc1)NCC2 (stereo not given) is 123 to 125 °C

Reported melting point for O=C(CI)Oc1cccc2c1C(=O)c1cn3c(c1C2=O)Cc1ccccc1C3 was > 260 °C

###

Measured melting point of individual entries

Example entries and their recorded answers appear below.
COC(=O)c1cc(Cl)ccc1N(C(C)C)S(=O)(=O)c1ccc(C)cc1 114 to 116 °C
O=C(O)CNC(=O)CCc1cccc(-c2nc(=O)c3ccccc3s2)n1 219 to 220 °C
CON=C(C1=NOCCO1)c1ccccc1CCl 93 to 96 °C
CCNC(=O)CCCNC(=O)CCCNC(=O)OC(C)(C)C 134 to 135 °C
COC(=O)CCC(=O)c1ccc(-c2ccc(F)cc2)cc1 132 to 133 °C

Here's the next entry for you.
Reported melting point of Cc1cc(N)c([N+](=O)[O-])cc1OS(C)(=O)=O : 128 °C

###

Quick reference for melting point among some compounds

compound	recordedValue
CC(Cc1c[nH]c2ccc(N)cc12)[N+](=O)[O-] (stereo not drawn)	120 to 122 °C

melting point recorded for this compound, CC(C)=CCOc1ccc(C2=C(CC(C)C)C(=O)NC2=O)cc1 , is 110 to 111 °C

So for CCOC(=O)c1cnn(-c2ccc(Cl)cc2C(F)(F)F)c1Cl , the logged melting point turned out to be 67 to 69 °C

Record COc1ccc(Cl)c(Oc2c(C=O)nc(N3CCOCC3)nc2NS(=O)(=O)c2ccc(C(C)(C)C)cc2)c1 . Reported melting point: 235 to 236 °C

###

Property: melting point; scope: individual molecules

Known melting point results, listed for orientation:
molecule	recordedValue
COc1ccc(C(=O)Nc2cc(N)ccc2Br)cc1OC	154 to 155 °C
O=[N+]([O-])c1cc(Oc2ccc(Oc3cc([N+](=O)[O-])cc(C(F)(F)F)c3)cc2)cc(C(F)(F)F)c1	163 °C
COc1cc(C(=O)NS(=O)(=O)c2ccccc2C)ccc1Cc1cn(C)c2ccc(C(=O)NC[C@H](C)CC(F)(F)F)cc12	142 to 144 °C

Documented melting point of CC(C)(C)OC(=O)N1CC[C@H]2c3c(-c4ccccc4F)cccc3N(C(=O)OC(C)(C)C)[C@H]2CC1 (relative stereo) : 166 to 169 °C

###

valueType: melting point

Below, each entry is followed by its recorded melting point result.
compound	recordedValue
Cc1ccc(C(=O)c2c(Cl)cccc2Cl)cc1	109 to 112 °C
CC1(C)CCC(C)(C)c2cc(CC#Cc3ccc(C(=O)N4CCOCC4)cc3)ccc21	98 to 99 °C
CCOCc1nc2c(N)nc3ccccc3c2n1CCCCS(=O)(=O)NC	170 to 172 °C
COC(=O)[C@@H]1[C@H](NCc2cc(OC(F)(F)F)ccc2OC)[C@H](c2ccccc2)N[C@@H]1C (relative stereo)	81 to 82 °C
O=C(c1ccc(Cl)c(Cl)c1)N1CCc2cc(S(=O)(=O)N3CCN(c4cccc(Cl)c4)CC3)ccc21	174 to 175 °C
Cc1ccc(-c2nc(-c3ccc(C)cc3C)nc(-c3ccc(OCC(=O)OC4CC(C)(C)N(OC5CCCCC5)C(C)(C)C4)cc3O)n2)c(C)c1	105 to 109 °C
COc1cc(OC)c(C2=CCN(C)CC2)c(O)c1C(C)=O	143 to 144 °C
O=Cc1cccn1-c1ccc(F)cc1	82 to 83 °C
CNC(=O)c1cccc(NC(=O)Cc2ccc3c(c2)OCO3)c1	174 to 175 °C
CCOC(=O)c1cn(CCc2cccc(F)c2)c2cc(C3CC3)nn2c1=O	160 to 165 °C

Reported melting point for CS(=O)(=O)c1ccc(CN2CC3(COc4cc5c(cc43)OCO5)c3ccccc32)o1 (stereo not given) was 177 to 179 °C
